System: U2OS
Assay: Multiplex assay against U2OS
Type: toxicity, cell-based
Conditions: human, 12 h, 10 µM, compound concentration 10 uM, replicate 1
The molecules listed here are annotated with their Population Mitotic Cells (%).

{"MOLECULE": "N#Cc1c(Oc2cccc(OS(=O)(=O)CCCC(F)(F)F)c2)cccc1C(F)(F)F", "Population Mitotic Cells (%)": 21}
{"MOLECULE": "CN[C@@H](C)C(=O)N[C@H](C(=O)N1CCC[C@H]1C(=O)Nc1snnc1-c1ccccc1)C1CCCCC1", "Population Mitotic Cells (%)": 27}
{"MOLECULE": "CCCCC(=O)N(Cc1ccc(-c2ccccc2-c2nnn[nH]2)cc1)[C@H](C(=O)O)C(C)C", "Population Mitotic Cells (%)": 25}
{"MOLECULE": "Cl.NCCc1ccc(O)c(O)c1 [DOPAMINE HYDROCHLORIDE]", "Population Mitotic Cells (%)": 20}
{"MOLECULE": "O=C(CCCc1ccccc1)Nc1nc2ccccc2c(=O)s1", "Population Mitotic Cells (%)": 28}
{"MOLECULE": "CCc1cc2cc(NS(=O)(=O)c3ccc(C#N)cc3)ccc2n(CC)c1=O", "Population Mitotic Cells (%)": 33}
{"MOLECULE": "CC(=O)Nc1cccc2c1c(Sc1ccc(Cl)cc1)c(C)n2CC(=O)O", "Population Mitotic Cells (%)": 16}
{"MOLECULE": "CC(C)c1noc(N2CCC(COc3ccc(-c4ccc(S(C)(=O)=O)cc4)nc3)CC2)n1", "Population Mitotic Cells (%)": 10}
{"MOLECULE": "O=C(NCCN1CCC(n2c(=O)[nH]c3cc(Cl)ccc32)CC1)c1ccc(F)cc1 [HALOPEMIDE]", "Population Mitotic Cells (%)": 31}
{"MOLECULE": "N#Cc1cc(F)cc(-c2nc(-c3ccc(F)cn3)no2)c1", "Population Mitotic Cells (%)": 23}
{"MOLECULE": "COc1ccccc1N1CCN(C[C@@H](C(=O)NC(C)(C)C)c2ccccc2)CC1.Cl.Cl", "Population Mitotic Cells (%)": 53}
{"MOLECULE": "CC[C@@H](C)Nc1nc(C)nc2c(-c3ccc(OC)nc3C)c(C)nn12", "Population Mitotic Cells (%)": 9}
{"MOLECULE": "Br.CS(=O)(=O)Nc1c(O)ccc2c1CCCC2C1=NCCN1 (centres undefined)", "Population Mitotic Cells (%)": 30}
{"MOLECULE": "O=C1[C@H](Cc2ccc(O)cc2)N2C(=O)CCN(C(=O)NCc3ccccc3)[C@H]2CN1Cc1cccc2ccccc12", "Population Mitotic Cells (%)": 40}
{"MOLECULE": "CC(/C=C1\\SC(=S)N(CCCC(=O)Nc2ccc(C(=O)O)c(O)c2)C1=O)=C\\c1ccccc1", "Population Mitotic Cells (%)": 8}
{"MOLECULE": "Cc1noc(-c2ccc(-c3ccc(CC(=O)O)cc3)cc2)c1NC(=O)O[C@H](C)c1ccccc1Cl", "Population Mitotic Cells (%)": 21}
{"MOLECULE": "CCCOc1ccc2[nH]cc(C3=CCNCC3)c2n1.Cl", "Population Mitotic Cells (%)": 13}
{"MOLECULE": "COC[C@@H](c1ccc(C(F)(F)F)cc1)N1CCN(C2(C)CCN(C(=O)c3c(C)ncnc3C)CC2)C[C@@H]1C.O=C(O)/C=C\\C(=O)O [VICRIVIROC MALEATE]", "Population Mitotic Cells (%)": 13}
{"MOLECULE": "Cc1cccc(NC(=O)CN2CCC(c3ccccn3)CC2)c1.Cl.Cl", "Population Mitotic Cells (%)": 27}

Sourced from ChEMBL document CHEMBL5058577
